For each of the compounds below, state its IC50.
- measured.on: visual cycle isomerase (Bos taurus)
- Construct: Bovine Retinal Pigment Epithelium (RPE) microsome membranes were the source of a visual cycle isomerase; from tissue; host or cells: bovine retinal pigment epithelium microsome membranes; CRALBP made in E. coli
- Sequence (Q28175 2-533 limits assumed): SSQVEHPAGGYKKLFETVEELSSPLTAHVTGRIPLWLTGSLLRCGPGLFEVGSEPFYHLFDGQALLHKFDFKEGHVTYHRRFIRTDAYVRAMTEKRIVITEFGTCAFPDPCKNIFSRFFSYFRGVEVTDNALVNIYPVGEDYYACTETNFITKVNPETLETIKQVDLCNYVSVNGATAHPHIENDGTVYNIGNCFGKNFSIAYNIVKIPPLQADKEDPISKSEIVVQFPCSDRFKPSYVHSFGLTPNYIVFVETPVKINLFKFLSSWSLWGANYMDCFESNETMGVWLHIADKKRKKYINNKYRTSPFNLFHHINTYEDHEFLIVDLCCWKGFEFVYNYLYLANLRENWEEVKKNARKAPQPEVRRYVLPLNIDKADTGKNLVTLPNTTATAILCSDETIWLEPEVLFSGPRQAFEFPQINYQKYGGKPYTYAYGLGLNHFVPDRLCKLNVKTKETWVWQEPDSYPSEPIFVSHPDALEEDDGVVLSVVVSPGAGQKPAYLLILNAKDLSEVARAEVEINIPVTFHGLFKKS
- assay.overview: In vitro isomerase inhibition assay, bovine RPE microsome membranes
- Format: biochemical
- condition.description: inhibition of 11-cis retinol formation; values given as ranges

IC50 on visual cycle isomerase (Bos taurus) for NCCC(O)c1cccc(CCC2(O)CCCCC2)c1 (centres unmarked) is ≤ 1 µM

// returns IC50 for CCCC(O)(CCC)CCc1cccc(C(O)CCN)c1 (centres unmarked) with visual cycle isomerase (Bos taurus); value = ≤ 1 µM

Considering COCCCc1cccc(CCCN)c1 , its IC50 with visual cycle isomerase (Bos taurus) was recorded as 1 to 10 µM

Field IC50 (visual cycle isomerase (Bos taurus)), entry NCCOc1cccc(CCC2(O)CCCCC2)c1 : ≤ 1 µM

Item: NCCCc1cccc(CCCCO)c1 | System: visual cycle isomerase (Bos taurus) | IC50: 10 to 100 µM

Param item: NCCOc1cccc(CCc2cccnc2)c1 ; param system: visual cycle isomerase (Bos taurus); output IC50: 1 to 10 µM

Given the compound CCC(O)(CC)CCc1cccc(CCCN)c1 and test system visual cycle isomerase (Bos taurus), the measured IC50 is ≤ 1 µM

Record NCCOc1cccc(CCc2cccs2)c1 has visual cycle isomerase (Bos taurus) IC50 equal to ≤ 1 µM
